Reported pIC50, CYP1A2 (Homo sapiens).
pIC50: −log10 of the molar value.

INSERT INTO assay_data (molecule, result) VALUES
  ('C[C@H](c1ccc(F)cc1)n1cncc1CN1CCN(S(=O)(=O)c2cnc(N3CCN4C(=O)OC[C@H]4C3)s2)CC1 [Compound 26]', '< 5.00'),
  ('C[C@H](c1ccc(F)cc1)n1cncc1CN1CCN(S(=O)(=O)c2cnc(N3CCN(C)CC3)s2)CC1 [Compound 2]', '< 5.00'),
  ('C[C@H](c1ccc(F)cc1)n1cncc1CN1CCN(S(=O)(=O)c2cnc(N3CC[C@@H]4OCCN[C@H]4C3)s2)CC1 [Compound 13]', '< 5.00'),
  ('C[C@H](c1ccc(C#N)cc1)n1cncc1CN1CCN(S(=O)(=O)c2cnc(Nc3ccc(C(F)(F)F)cn3)s2)CC1 [Compound 4]', '< 5.00');

Value (pIC50, CYP1A2 (Homo sapiens)) for record C[C@H](c1ccc(F)cc1)n1cncc1C1C(=O)OCC2CN(S(=O)(=O)c3cnc(Nc4ccc(C(F)(F)F)cn4)s3)CCN21 (stereo partly shown) [Compound 39] = 5.43

Value (pIC50, CYP1A2 (Homo sapiens)) for record C[C@H](c1ccc(F)cc1)n1cncc1C1COCC2CN(S(=O)(=O)c3cnc(Nc4ccccn4)s3)CCN21 (stereo partly shown) [Compound 40] = < 5.00

Value (pIC50, CYP1A2 (Homo sapiens)) for record C[C@H](c1ccc(F)cc1)n1cncc1CN1CCN(S(=O)(=O)c2cnc(N3CCC4(CC3)CNC(=O)N4)s2)CC1 [Compound 3] = < 5.00

###

In this section we review reported IC50 values for a set of compounds.
# MEASURED_TARGET: CYP1A2 (Homo sapiens)
# Sequence (P05177 1-516): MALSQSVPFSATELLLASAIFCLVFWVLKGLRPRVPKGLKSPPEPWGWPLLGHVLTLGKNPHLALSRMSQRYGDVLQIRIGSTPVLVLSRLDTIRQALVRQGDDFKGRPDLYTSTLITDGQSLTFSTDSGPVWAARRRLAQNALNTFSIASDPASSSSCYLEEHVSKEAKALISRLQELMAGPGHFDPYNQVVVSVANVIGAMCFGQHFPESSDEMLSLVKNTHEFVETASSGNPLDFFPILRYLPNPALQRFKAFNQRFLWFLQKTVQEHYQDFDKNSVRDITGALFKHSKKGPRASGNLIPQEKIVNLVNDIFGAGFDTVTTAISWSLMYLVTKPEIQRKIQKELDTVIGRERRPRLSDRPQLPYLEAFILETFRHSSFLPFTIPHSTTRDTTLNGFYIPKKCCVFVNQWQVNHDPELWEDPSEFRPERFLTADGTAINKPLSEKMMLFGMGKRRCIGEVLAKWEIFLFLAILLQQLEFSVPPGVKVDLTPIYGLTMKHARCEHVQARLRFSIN

Given item C[C@H](c1ccc(F)cc1)n1cncc1C1CN(C)CC2CN(S(=O)(=O)c3cnc(Nc4ccccn4)s3)CCN21 (some centres unmarked) [Compound 41] , the value recorded as its IC50 is > 10 µM

Given item C[C@H](c1ccc(F)cc1)n1cncc1CN1CCN(S(=O)(=O)c2cnc(N3CCN4C[C@H](O)CC[C@H]4C3)s2)CC1 [Compound 19] , the value recorded as its IC50 is > 10 µM

Given item CC1CN(c2ncc(S(=O)(=O)N3CCN(Cc4cncn4[C@H](C)c4ccc(F)cc4)CC3)s2)C[C@@H]2C[C@@H](O)CN12 (some centres unmarked) [Compound 23] , the value recorded as its IC50 is > 10 µM

Given item C[C@H](c1ccc(F)cc1)n1cncc1CN1CCN(S(=O)(=O)c2cnc(NCC(F)CN)s2)CC1 (some centres unmarked) [Compound 17] , the value recorded as its IC50 is 2.19 µM

Given item C[C@H](c1ccc(F)cc1)n1cncc1CN1CCN(S(=O)(=O)c2cnc(N3CCN4C[C@H](O)CC4(C)C3)s2)CC1 (some centres unmarked) [Compound 24] , the value recorded as its IC50 is > 10 µM
